- Tested on: Escherichia coli TOP10
- assay_comment: shrunken log2 fold change of peptide-encoding DNA abundance (4.5 h post-induction vs induction); higher = less antimicrobial activity (less host growth inhibition)
- test_conditions: time post-induction: 4.5 h; library: site-saturation at positions 5, 18, 19, 20
Binary classification by shrunken log2 fold change, with 0.06 as an inclusive lower bound for true (1); all other cases are false (0).

# sequence_text, group_label
measured = [
    ("RRIRKRPPRLPRPRPRPDSTPRP", "false (0)"),
]

Req: In plain terms: is recorded shrunken log2 fold change at least 0.06 for `RRIRTRPPRLPRPRPRPPIMPRP` ?
Resp: false (0)

Req: In plain terms: is recorded shrunken log2 fold change at least 0.06 for `RRIRIRPPRLPRPRPRPAAIPRP` ?
Resp: false (0)

Req: In plain terms: is recorded shrunken log2 fold change at least 0.06 for `RRIRRRPPRLPRPRPRPAWGPRP` ?
Resp: true (1)

Req: In plain terms: is recorded shrunken log2 fold change at least 0.06 for `RRIRCRPPRLPRPRPRPCKSPRP` ?
Resp: false (0)

====

- Test system: Escherichia coli TOP10
- assay_comment: shrunken log2 fold change of peptide-encoding DNA abundance (4.5 h post-induction vs induction); higher = less antimicrobial activity (less host growth inhibition)
- test_conditions: time post-induction: 4.5 h; library: site-saturation at positions 5, 18, 19, 20
Consider the following sequences; for each one, report its shrunken log2 fold change.
Give bare numbers.

Parameters: items (list). Returns: shrunken log2 fold change for each item.
1. RRIRGRPPRLPRPRPRPYNPPRP
2. RRIRKRPPRLPRPRPRPNPNPRP
3. RRIRERPPRLPRPRPRPYTTPRP
4. RRIRTRPPRLPRPRPRPRNIPRP

Resp:
[-0.504, 0.179, -0.49, -0.623]

Parameters: items (list). Returns: shrunken log2 fold change for each item.
1. RRIRGRPPRLPRPRPRPIHDPRP
2. RRIRRRPPRLPRPRPRPYADPRP
3. RRIRLRPPRLPRPRPRPQMIPRP
4. RRIRMRPPRLPRPRPRPSRDPRP
5. RRIRMRPPRLPRPRPRPFTPPRP
6. RRIRYRPPRLPRPRPRPDKCPRP

Resp:
-0.126
-0.0932
-0.173
0.257
-0.397
-0.107

Parameters: items (list). Returns: shrunken log2 fold change for each item.
1. RRIRCRPPRLPRPRPRPKWTPRP
2. RRIRMRPPRLPRPRPRPVEDPRP
3. RRIRCRPPRLPRPRPRPTRMPRP
4. RRIRRRPPRLPRPRPRPGMEPRP

Resp:
-0.0568
0.358
0.0511
0.0306

Short answer on Escherichia coli TOP10 for `RRIRYRPPRLPRPRPRPMTNPRP` , shrunken log2 fold change: -1.55

====

- Tested on: Escherichia coli TOP10
- assay_comment: shrunken log2 fold change of peptide-encoding DNA abundance (4.5 h post-induction vs induction); higher = less antimicrobial activity (less host growth inhibition)
- test_conditions: time post-induction: 4.5 h; library: site-saturation at positions 5, 18, 19, 20
Binary classification by shrunken log2 fold change, with 0.2 as an inclusive lower bound for fulfilled; all other cases are not fulfilled.

See these solved cases before continuing.
# sequence_text, group_label
rows = [
    ("RRIRVRPPRLPRPRPRPFCEPRP", "not fulfilled"),
    ("RRIRKRPPRLPRPRPRPCNIPRP", "not fulfilled"),
    ("RRIRQRPPRLPRPRPRPTFDPRP", "not fulfilled"),
    ("RRIRLRPPRLPRPRPRPLMGPRP", "not fulfilled"),
    ("RRIRDRPPRLPRPRPRPDCRPRP", "fulfilled"),
]

Req: In plain terms: is recorded shrunken log2 fold change at least 0.2 for `RRIRHRPPRLPRPRPRPRGVPRP` ?
Resp: fulfilled

Req: In plain terms: is recorded shrunken log2 fold change at least 0.2 for `RRIRTRPPRLPRPRPRPNCNPRP` ?
Resp: not fulfilled

Req: In plain terms: is recorded shrunken log2 fold change at least 0.2 for `RRIRPRPPRLPRPRPRPLWGPRP` ?
Resp: fulfilled

====

- Tested on: Escherichia coli TOP10
- assay_comment: shrunken log2 fold change of peptide-encoding DNA abundance (4.5 h post-induction vs induction); higher = less antimicrobial activity (less host growth inhibition)
- test_conditions: time post-induction: 4.5 h; library: site-saturation at positions 5, 18, 19, 20
Output schema: class label derived from shrunken log2 fold change. Mapping: low interval: < -0.1; middle interval: ≥ -0.1 and < 0.08; high interval: ≥ 0.08

# sequence_text, group_label
measured = [
    ("RRIRLRPPRLPRPRPRPTQRPRP", "high interval"),
    ("RRIRVRPPRLPRPRPRPFWQPRP", "high interval"),
]

Req: // bin(item) where item = `RRIRWRPPRLPRPRPRPMTPPRP`
Resp: high interval

====

Consider the following sequences; for each one, report its shrunken log2 fold change.
- Tested on: Escherichia coli TOP10
- assay_comment: shrunken log2 fold change of peptide-encoding DNA abundance (4.5 h post-induction vs induction); higher = less antimicrobial activity (less host growth inhibition)
- test_conditions: time post-induction: 4.5 h; library: site-saturation at positions 5, 18, 19, 20
One number for each entry.

Parameters: items (list). Returns: shrunken log2 fold change for each item.
1. RRIRHRPPRLPRPRPRPKSCPRP
2. RRIRSRPPRLPRPRPRPYVLPRP
3. RRIRDRPPRLPRPRPRPGFMPRP

Resp:
[-0.0344, -0.277, 0.219]

Parameters: items (list). Returns: shrunken log2 fold change for each item.
1. RRIRERPPRLPRPRPRPSSYPRP
2. RRIRCRPPRLPRPRPRPLRPPRP
3. RRIRGRPPRLPRPRPRPLWWPRP

Resp:
-1.12
0.815
0.458

Parameters: items (list). Returns: shrunken log2 fold change for each item.
1. RRIRQRPPRLPRPRPRPHGGPRP
2. RRIRSRPPRLPRPRPRPWNYPRP
3. RRIRARPPRLPRPRPRPQTAPRP
4. RRIRTRPPRLPRPRPRPLCVPRP
5. RRIRSRPPRLPRPRPRPNELPRP
6. RRIRFRPPRLPRPRPRPSMQPRP
7. RRIRPRPPRLPRPRPRPEGTPRP
8. RRIRIRPPRLPRPRPRPPCFPRP

Resp:
1. -0.0841
2. 0.0149
3. 0.188
4. -0.357
5. -0.295
6. -0.209
7. 0.0836
8. -0.11

Parameters: items (list). Returns: shrunken log2 fold change for each item.
1. RRIRTRPPRLPRPRPRPEMIPRP
2. RRIRDRPPRLPRPRPRPDYCPRP
3. RRIRKRPPRLPRPRPRPYGKPRP
4. RRIRKRPPRLPRPRPRPGTAPRP
5. RRIRIRPPRLPRPRPRPHLKPRP

Resp:
1. 0.0294
2. -0.045
3. -0.154
4. 0.625
5. -0.358

====

- System: Escherichia coli TOP10
- assay_comment: shrunken log2 fold change of peptide-encoding DNA abundance (4.5 h post-induction vs induction); higher = less antimicrobial activity (less host growth inhibition)
- test_conditions: time post-induction: 4.5 h; library: site-saturation at positions 5, 18, 19, 20
Binary classification by shrunken log2 fold change, with 0.08 as an inclusive lower bound for 1; all other cases are -1.

See these solved cases before continuing.
# sequence_text, group_label
rows = [
    ("RRIRERPPRLPRPRPRPDEVPRP", -1),
    ("RRIRCRPPRLPRPRPRPQDLPRP", -1),
    ("RRIRHRPPRLPRPRPRPVSCPRP", -1),
]

Req: In plain terms: is recorded shrunken log2 fold change at least 0.08 for `RRIRPRPPRLPRPRPRPVGFPRP` ?
Resp: 1

Req: In plain terms: is recorded shrunken log2 fold change at least 0.08 for `RRIRIRPPRLPRPRPRPVWNPRP` ?
Resp: -1

====

Consider the following sequences; for each one, report its shrunken log2 fold change.
- Tested on: Escherichia coli TOP10;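 further: peptides expressed intracellularly from a pBAD plasmid library in pooled LB shake-flask culture, induced with 0.3% L-arabinose, DNA abundance read by NGS, three biological replicates, DESeq2 with apeglm shrinkage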
- assay_comment: shrunken log2 fold change of peptide-encoding DNA abundance (4.5 h post-induction vs induction); higher = less antimicrobial activity (less host growth inhibition)
- test_conditions: time post-induction: 4.5 h; library: site-saturation at positions 5, 18, 19, 20
Give bare numbers.

The cases that follow already have their shrunken log2 fold change on record.
# sequence_text, data_value
data = [
    ("RRIRLRPPRLPRPRPRPAHFPRP", -0.197),
    ("RRIRWRPPRLPRPRPRPMYDPRP", -0.158),
    ("RRIRMRPPRLPRPRPRPAGPPRP", 0.484),
    ("RRIRYRPPRLPRPRPRPLDRPRP", -0.182),
    ("RRIRDRPPRLPRPRPRPIGLPRP", -0.00129),
]

Parameters: items (list). Returns: shrunken log2 fold change for each item.
1. RRIRNRPPRLPRPRPRPIDIPRP
2. RRIRLRPPRLPRPRPRPELGPRP
3. RRIRVRPPRLPRPRPRPMLMPRP
4. RRIRTRPPRLPRPRPRPWFGPRP
5. RRIRDRPPRLPRPRPRPKKDPRP
6. RRIRCRPPRLPRPRPRPHFAPRP
7. RRIRQRPPRLPRPRPRPFFRPRP
8. RRIRQRPPRLPRPRPRPQGWPRP

Resp:
1: -0.947; 2: 0.0397; 3: 0.00342; 4: 0.0864; 5: 0.199; 6: 0.0672; 7: -0.236; 8: -0.151
